- system name: T1, human IGF-1R(1-903)-Fc (human, UniProt P08069 31-933)
- T1 construct: also called hIGF-1R-Fc; SDWT; not shown: human IgG1 Fc, C-terminal tag
- T1 sequence (P08069 31-933): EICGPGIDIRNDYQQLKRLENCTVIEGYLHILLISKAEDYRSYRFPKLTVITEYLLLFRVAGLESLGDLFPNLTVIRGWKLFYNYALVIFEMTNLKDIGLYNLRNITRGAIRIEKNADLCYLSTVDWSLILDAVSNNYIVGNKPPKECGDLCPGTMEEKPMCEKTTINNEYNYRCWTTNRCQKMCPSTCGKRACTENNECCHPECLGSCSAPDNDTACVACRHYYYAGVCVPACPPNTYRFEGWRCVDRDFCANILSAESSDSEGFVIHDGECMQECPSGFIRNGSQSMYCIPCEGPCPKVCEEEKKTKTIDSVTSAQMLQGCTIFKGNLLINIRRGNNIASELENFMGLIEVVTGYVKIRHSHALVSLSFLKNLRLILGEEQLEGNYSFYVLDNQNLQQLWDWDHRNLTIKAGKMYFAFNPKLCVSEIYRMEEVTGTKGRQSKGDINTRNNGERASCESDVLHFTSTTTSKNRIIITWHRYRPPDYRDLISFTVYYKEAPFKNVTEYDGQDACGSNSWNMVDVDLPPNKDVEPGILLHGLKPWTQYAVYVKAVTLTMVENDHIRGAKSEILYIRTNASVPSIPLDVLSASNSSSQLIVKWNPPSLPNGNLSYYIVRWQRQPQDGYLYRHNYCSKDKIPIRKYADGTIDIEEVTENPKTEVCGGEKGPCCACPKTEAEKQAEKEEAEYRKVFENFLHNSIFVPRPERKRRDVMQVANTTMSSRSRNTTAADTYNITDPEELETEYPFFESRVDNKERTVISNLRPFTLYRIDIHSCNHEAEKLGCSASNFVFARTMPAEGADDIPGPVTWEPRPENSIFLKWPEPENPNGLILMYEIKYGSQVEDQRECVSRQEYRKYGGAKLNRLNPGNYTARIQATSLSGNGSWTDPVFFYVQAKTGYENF
- test: biolayer interferometry (Octet), IGF-1R Fc on Protein A sensors, scFv culture supernatant
- Parameters: unit not given here
observed property: Kd (1/sec), off-rate as tabulated (XWU092 = 1.00)

Completed entries (count: 4):
- binder: "MJF050, C06 (VL/GS3/VH) scFv with VH T110V (scFv, name in Kabat numbering, Kabat positions) scFv: DIQMTQSPLSLSASVGDRVTITCQASRDIRNYLNWYQQKPGKAPKLLIYDASSLQTGVPSRFGGSGSGTDFSFTIGSLQPEDIATYYCQQFDSLPHTFGQGTKLEIKGGGGSGGGGSGGGGSEVQLLESGGGLVQPGGSLRLSCAASGFTFSIYRMQWVRQAPGKGLEWVSGISPSGGTTWYADSVKGRFTISRDNSKNTLYLQMNSLRAEDTAVYYCARWSGGSGYAFDIWGQGTMVVVSSDDDKSFLEQKLISEEDLNSAVDHHHHHH"
  measured result: 1.68
- binder: "MJF027, C06 (VL/GS3/VH) scFv with VL Q24K (scFv, Kabat positions) scFv: DIQMTQSPLSLSASVGDRVTITCKASRDIRNYLNWYQQKPGKAPKLLIYDASSLQTGVPSRFGGSGSGTDFSFTIGSLQPEDIATYYCQQFDSLPHTFGQGTKLEIKGGGGSGGGGSGGGGSEVQLLESGGGLVQPGGSLRLSCAASGFTFSIYRMQWVRQAPGKGLEWVSGISPSGGTTWYADSVKGRFTISRDNSKNTLYLQMNSLRAEDTAVYYCARWSGGSGYAFDIWGQGTMVTVSSDDDKSFLEQKLISEEDLNSAVDHHHHHH"
  measured result: 1.12
- binder: "MJF043, C06 (VL/GS3/VH) scFv with VL I83D (scFv, Kabat positions) scFv: DIQMTQSPLSLSASVGDRVTITCQASRDIRNYLNWYQQKPGKAPKLLIYDASSLQTGVPSRFGGSGSGTDFSFTIGSLQPEDDATYYCQQFDSLPHTFGQGTKLEIKGGGGSGGGGSGGGGSEVQLLESGGGLVQPGGSLRLSCAASGFTFSIYRMQWVRQAPGKGLEWVSGISPSGGTTWYADSVKGRFTISRDNSKNTLYLQMNSLRAEDTAVYYCARWSGGSGYAFDIWGQGTMVTVSSDDDKSFLEQKLISEEDLNSAVDHHHHHH"
  measured result: 1.12
- binder: "conventional C06 (VL/GS3/VH) scFv (pXWU092) (scFv, also called WT C06 scFv) scFv: DIQMTQSPLSLSASVGDRVTITCQASRDIRNYLNWYQQKPGKAPKLLIYDASSLQTGVPSRFGGSGSGTDFSFTIGSLQPEDIATYYCQQFDSLPHTFGQGTKLEIKGGGGSGGGGSGGGGSEVQLLESGGGLVQPGGSLRLSCAASGFTFSIYRMQWVRQAPGKGLEWVSGISPSGGTTWYADSVKGRFTISRDNSKNTLYLQMNSLRAEDTAVYYCARWSGGSGYAFDIWGQGTMVTVSS"
  measured result: 1

Quick check: Kd (1/sec), off-rate as tabulated (XWU092 = 1.00) of MJF048, C06 (VL/GS3/VH) scFv with VH R83K (scFv, name in Kabat numbering, Kabat positions) scFv: DIQMTQSPLSLSASVGDRVTITCQASRDIRNYLNWYQQKPGKAPKLLIYDASSLQTGVPSRFGGSGSGTDFSFTIGSLQPEDIATYYCQQFDSLPHTFGQGTKLEIKGGGGSGGGGSGGGGSEVQLLESGGGLVQPGGSLRLSCAASGFTFSIYRMQWVRQAPGKGLEWVSGISPSGGTTWYADSVKGRFTISRDNSKNTLYLQMNSLKAEDTAVYYCARWSGGSGYAFDIWGQGTMVTVSSDDDKSFLEQKLISEEDLNSAVDHHHHHH ?
1.37
